# Measured On: T1, human CD26-derived 13 mer peptide 18 (human)
# T1 peptide: EYGNSSVFLENST
# Assay Overview: peptide microarray
Measured Property: Mean Signal Value
One number for each entry.

Form field Mean Signal Value, entry rhuMAb 411 (antibody, human IgG1, kappa, V domains shown, also called X411) VH: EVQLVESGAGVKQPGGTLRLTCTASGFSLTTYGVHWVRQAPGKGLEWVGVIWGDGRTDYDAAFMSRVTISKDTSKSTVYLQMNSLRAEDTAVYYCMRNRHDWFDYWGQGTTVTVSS VL: DILLTQSPSSLSATPGERATITCRASQGIRNNLNWYQQKPGQAPRLLIYYSSNLQSGVPSRFSGSGSGTDFTLTISRLQPEDVAAYYCQQSIKLPFTFGSGTKVEIKR : 0
